- measurement.notes: in vitro
- measurement.conditions: human
measured.quantity: CC50 (µM)

* N#CCCc1cc(F)c(Nc2nc(Nc3ccc(C#N)cc3)nc(OCCCN3CCOCC3)n2)c(F)c1 | 27
* Cc1cc(/C=C/C#N)cc(C)c1Nc1nc(NCCCN2CCOCC2)nc(Nc2ccc(C#N)cc2)n1 | 1.8
* N#C/C=C/c1cc(F)c(Nc2nc(Nc3ccc(C#N)cc3)nc(OCCCN3CCOCC3)n2)c(F)c1 | 6.5
* Cc1cc(/C=C/C#N)cc(C)c1Nc1cc(NCCCN2CCOCC2)nc(Nc2ccc(C#N)cc2)n1 | 4.5

---

- measurement.notes: physchem
- measurement.conditions: 25 °C, pH 6.5, aqueous buffer, thermodynamic from solid
measured.quantity: solubility at 48 h (µg/mL)

- N#CCCc1cc(F)c(Nc2nc(Nc3ccc(C#N)cc3)nc(OCCCN3CCOCC3)n2)c(F)c1 [Compound 6i]: 25.4
- Cc1cc(/C=C/C#N)cc(C)c1Nc1cc(OCCCN2CCOCC2)nc(Nc2ccc(C#N)cc2)n1 [Compound 5c]: 2

---

- Tested on: IIIB strain of HIV-1 (wild-type)
- measurement.notes: Anti-HIV-1 activity, MT-2 cells infected with wild-type HIV-1 (IIIB), MTT method
- Assay type: cell-based
- measurement.conditions: Human immunodeficiency virus 1, IIIB, MT2, read-out: EC50 WT
pEC50: −log10 of the molar value.
measured.quantity: pEC50

• N#C/C=C/c1cc(F)c(Nc2nc(NCCCN3CCOCC3)nc(Nc3ccc(C#N)cc3)n2)c(F)c1 [JLJ0597] = 8.24
• Cc1cc(/C=C/C#N)cc(C)c1Nc1nc(NCCCN2CCOCC2)nc(Nc2ccc(C#N)cc2)n1 [JLJ0596] = 8.15
• N#CCCc1cc(F)c(Nc2nc(Nc3ccc(C#N)cc3)nc(OCCCN3CCOCC3)n2)c(F)c1 [Compound 6i] = 8.30
• N#C/C=C/c1cc(F)c(Nc2nc(Nc3ccc(C#N)cc3)nc(OCCCN3CCOCC3)n2)c(F)c1 [Compound 6j] = 7.85
• N#C/C=C/c1cc(F)c(Nc2cc(NCCCN3CCOCC3)nc(Nc3ccc(C#N)cc3)n2)c(F)c1 [JLJ0619] = 8.35
• Cc1cc(/C=C/C#N)cc(C)c1Nc1cc(NCCCN2CCOCC2)nc(Nc2ccc(C#N)cc2)n1 [JLJ0618] = 8.52
• N#C/C=C/c1cc(F)c(Nc2cc(OCCCN3CCOCC3)nc(Nc3ccc(C#N)cc3)n2)c(F)c1 [Compound 5d] = 8.39
• Cc1cc(/C=C/C#N)cc(C)c1Nc1cc(OCCCN2CCOCC2)nc(Nc2ccc(C#N)cc2)n1 [Compound 5c] = 8.43

---

- measurement.notes: in vitro
- measurement.conditions: human
measured.quantity: CC50 (µM)

* N#C/C=C/c1cc(F)c(Nc2cc(NCCCN3CCOCC3)nc(Nc3ccc(C#N)cc3)n2)c(F)c1 [JLJ0619] | 2.2
* N#C/C=C/c1cc(F)c(Nc2nc(NCCCN3CCOCC3)nc(Nc3ccc(C#N)cc3)n2)c(F)c1 [JLJ0597] | 7
* N#C/C=C/c1cc(F)c(Nc2cc(OCCCN3CCOCC3)nc(Nc3ccc(C#N)cc3)n2)c(F)c1 [Compound 5d] | 18
* Cc1cc(/C=C/C#N)cc(C)c1Nc1cc(OCCCN2CCOCC2)nc(Nc2ccc(C#N)cc2)n1 [Compound 5c] | 6.4

---

- Tested on: HIV-1 Y181C variant
- measurement.notes: microbe, parasite or virus in culture
- Type: cell-based
- measurement.conditions: Human immunodeficiency virus 1, MT2, read-out: EC50, Y181C variant
measured.quantity: EC50 (nM)

• Cc1cc(C)c(Nc2cc(OCCCN3CCOCC3)nc(Nc3ccc(C#N)cc3)n2)c(C)c1 [Compound 5b] = 480
• Cc1cc(C)c(Nc2nc(Nc3ccc(C#N)cc3)nc(OCCCN3CCOCC3)n2)c(C)c1 [Compound 6b] = 310
• Cc1cc(C)c(Nc2ccnc(Nc3ccc(C#N)cc3)n2)c(C)c1 [Compound 10a, dapivirine, reference compound] = 39
• Cc1cc(C)c(Nc2cc(OCCN3CCOCC3)nc(Nc3ccc(C#N)cc3)n2)c(C)c1 [Compound 5a] = 700

---

- measurement.notes: Cytotoxicity, inhibition of MT-2 cell growth
- measurement.conditions: human
measured.quantity: CC50

* Cc1ccnc2c1NC(=O)c1cccnc1N2C1CC1 [nevirapine] | > 100 µM

---

- measurement.notes: Aqueous solubility, shake-flask method with UV detection
- measurement.conditions: 25 °C, aqueous buffer, thermodynamic from solid
measured.quantity: solubility at 48 h (µg/mL)

• Cc1cc(/C=C/C#N)cc(C)c1Nc1nc(Nc2ccc(C#N)cc2)nc(OCCCN2CCOCC2)n1 = 14.2

---

- measurement.notes: Aqueous solubility, shake-flask method with UV detection
- measurement.conditions: Table 5; pH 6.5
The following compounds are shown together with reported Aqueous Solubility (S) values.
measured.quantity: Aqueous Solubility (S) (µg/mL)

• Cc1cc(C#N)cc(C)c1Nc1nc(Nc2ccc(C#N)cc2)nc(OCCCN2CCOCC2)n1 = 13.3
• Cc1cc(C)c(Nc2nc(Nc3ccc(C#N)cc3)nc(OCCCN3CCOCC3)n2)c(C)c1 = 15.3
• Cc1cc(C)c(Nc2cc(OCCN3CCOCC3)nc(Nc3ccc(C#N)cc3)n2)c(C)c1 = 12.5
• Cc1cc(C)c(Nc2nc(Nc3ccc(C#N)cc3)nc(OCCN3CCOCC3)n2)c(C)c1 = 4.42
• Cc1cc(C)c(Nc2cc(OCCCN3CCOCC3)nc(Nc3ccc(C#N)cc3)n2)c(C)c1 = 27.3
• Cc1cc(/C=C/C#N)cc(C)c1Nc1nc(Nc2ccc(C#N)cc2)nc(OCCCN2CCOCC2)n1 = 14.2
• Cc1cc(F)c(Nc2nc(Nc3ccc(C#N)cc3)nc(OCCCN3CCOCC3)n2)c(F)c1 = 22.9

These data points were gathered from patent US9914709B2.
